FYI, the data here is from patent US20130157953A1.

- target desc: human GLP-1R (Homo sapiens)
- Construct: expressed in transfected cells; host or cells: HEK293
- Sequence (P43220 24-463): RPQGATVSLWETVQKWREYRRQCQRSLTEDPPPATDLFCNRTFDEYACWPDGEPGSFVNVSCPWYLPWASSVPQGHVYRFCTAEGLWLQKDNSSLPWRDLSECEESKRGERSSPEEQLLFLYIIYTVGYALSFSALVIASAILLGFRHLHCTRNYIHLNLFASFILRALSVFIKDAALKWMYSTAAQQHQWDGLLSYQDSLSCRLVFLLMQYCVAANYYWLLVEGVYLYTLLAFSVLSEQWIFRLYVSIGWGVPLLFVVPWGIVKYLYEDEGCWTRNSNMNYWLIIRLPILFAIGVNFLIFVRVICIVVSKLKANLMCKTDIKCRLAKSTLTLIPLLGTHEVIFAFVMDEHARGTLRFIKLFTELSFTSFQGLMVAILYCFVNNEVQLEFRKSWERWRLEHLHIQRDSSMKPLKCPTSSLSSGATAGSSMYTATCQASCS
- assay protocol: cAMP formation in HEK293 cells expressing human GLP-1R
- Type: cell-based
- study conditions: 15 min at 37° C.
property label: EC50 (nM)
Write it as a number; the unit nM goes unstated.

substance: H-HSQGTFTSDYSKYLDSALAQDFVWLLNT-NH2 [Compound 255]
target desc: human GLP-1R (Homo sapiens)
number: 0.24
//
substance: H-HSQGTFTSDYSKYLDSRAAQDFVWLMNT-NH2 [Compound 246]
target desc: human GLP-1R (Homo sapiens)
number: 0.3

Entry H-HSQGTFTSDYSKYLDSRSAQDFVWLMNT-NH2 [Compound 245] ; EC50 = 0.1

Kindly note the recorded EC50 for H-HSQGTFTSDYSRYLDSRRAQDFVWLLNT-NH2 [Compound 253] , which is 0.2
